test: growth inhibitors of tim10-1 mutant yeast, primary screen, luminescence, uHTS (AID 463190);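 note: mutant grown at 25 °C; 0% = DMSO wells with yeast and 100% = wells holding no yeast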; details: S. cerevisiae tim10-1 ts strain growth, BacTiter-Glo, 24 h; at 20 µM; hits give high values
The whole screen tested about 330,000 compounds, of which about 7,300 (2.2%) were called active. For the sample, actives were picked, then their nearest neighbours and some compounds at random.
VALUE_TYPE: inhibition (%)
Write the answer as a number in %, unit excluded.

Query :: Requested read-out: inhibition. Entry: CN(Cc1c(F)cccc1Cl)C(=O)CNC(=O)c1ccc2c(c1)OCO2
Result :: 7.42

Query :: And what about the compound Cc1[nH]n(-c2ccc([N+](=O)[O-])cc2)c(=O)c1C=NCCN1CCN(C(=O)c2ccccc2F)CC1 ?
Result :: 42.3

Query :: Also COc1ccc2nc(N3CCN(C(=O)c4ccc([N+](=O)[O-])o4)CC3)sc2c1 ?
Result :: 42.2

Query :: What do we get for CCc1cccc(C)c1NS(=O)(=O)c1c(C)nc2sccn2c1=O ?
Result :: 21.8

Query :: Continue with COc1cccc(C(=O)N/N=C(\C)c2cccc(NC(=O)c3ccc(F)cc3)c2)c1OC
Result :: 20.1

Query :: Could you do the same for CC1(C)CC(=O)C(C=NCCN2CCN(C(=S)Nc3cccc(Cl)c3)CC2)=C(O)C1 , please?
Result :: 6.34

Query :: Same read-out for Cc1cc(C)cc(OCC(=O)NCc2cc(C)nc3ccccc23)c1 ?
Result :: 20.5

Query :: Similarly, Cc1ccc2nc(N3CCN(C(=O)c4ccco4)CC3)sc2c1 ?
Result :: 6.64

Query :: Also check COc1cccc(-c2cc3nc4c(c(N5CCC6(CC5)OCCO6)n3n2)CCCC4)c1
Result :: 41.5

Query :: Would you mind doing N/C(=N\S(=O)(=O)c1cc(C(F)(F)F)cc(C(F)(F)F)c1)c1cccs1 as well?
Result :: 5.1

Query :: Repeat for the following compound: Cc1nc(/N=C(\N)NC(=O)NC2CCCCC2)nc2ccccc12
Result :: -11.5

Query :: Next entry: COc1ccc(CNC(=O)COC(=O)/C=C/c2ccc(S(=O)(=O)N3CCOCC3)cc2)cc1
Result :: 20

Query :: Proceed to C=CCNC(=S)N1CCN(CCN=Cc2c(C)[nH]n(-c3ccc([N+](=O)[O-])cc3)c2=O)CC1
Result :: 43.4

Query :: What about NC(=O)C1=C[C@@H](c2ccc3c(c2)OCO3)C[C@@H](OCCCCO)O1 ?
Result :: -9.86

Query :: Try this compound next: COc1cccc(CNc2nc3nc4c(c(=O)n3[nH]2)CCC4)c1
Result :: -3.51

Query :: CC1CCC2(CC1)NC(=O)N(CC(=O)c1ccc3c(c1)OCO3)C2=O (stereo unspecified) ?
Result :: -17.1

Query :: Quick one: COc1ccc(CCCc2nnc(SCc3nc4ccccc4c(=O)[nH]3)n2C)cc1
Result :: 19.4

Query :: Now consider Cc1c(C(=O)O)nnn1-c1nonc1N .
Result :: 3.56

Query :: Do the same for Cc1ccc(-n2[nH]c(C)c(/C=N/NC(=O)c3cccc([N+](=O)[O-])c3)c2=O)cc1C please
Result :: 6.18

Query :: And then COc1ccc(OCC(=O)NNC(=O)C2CCC2)cc1 , what is it?
Result :: -8.95

Query :: Now the same for O=C(COC(=O)C1CC2C=CC1C2)Nc1ccccc1 (stereo unspecified)
Result :: 13.3
